Entry source: the supplement of paper PMC10065799

STUDY_SYSTEM: FGFR3 (UniProt P22607)
Sequence (P22607 whole entry, looked up): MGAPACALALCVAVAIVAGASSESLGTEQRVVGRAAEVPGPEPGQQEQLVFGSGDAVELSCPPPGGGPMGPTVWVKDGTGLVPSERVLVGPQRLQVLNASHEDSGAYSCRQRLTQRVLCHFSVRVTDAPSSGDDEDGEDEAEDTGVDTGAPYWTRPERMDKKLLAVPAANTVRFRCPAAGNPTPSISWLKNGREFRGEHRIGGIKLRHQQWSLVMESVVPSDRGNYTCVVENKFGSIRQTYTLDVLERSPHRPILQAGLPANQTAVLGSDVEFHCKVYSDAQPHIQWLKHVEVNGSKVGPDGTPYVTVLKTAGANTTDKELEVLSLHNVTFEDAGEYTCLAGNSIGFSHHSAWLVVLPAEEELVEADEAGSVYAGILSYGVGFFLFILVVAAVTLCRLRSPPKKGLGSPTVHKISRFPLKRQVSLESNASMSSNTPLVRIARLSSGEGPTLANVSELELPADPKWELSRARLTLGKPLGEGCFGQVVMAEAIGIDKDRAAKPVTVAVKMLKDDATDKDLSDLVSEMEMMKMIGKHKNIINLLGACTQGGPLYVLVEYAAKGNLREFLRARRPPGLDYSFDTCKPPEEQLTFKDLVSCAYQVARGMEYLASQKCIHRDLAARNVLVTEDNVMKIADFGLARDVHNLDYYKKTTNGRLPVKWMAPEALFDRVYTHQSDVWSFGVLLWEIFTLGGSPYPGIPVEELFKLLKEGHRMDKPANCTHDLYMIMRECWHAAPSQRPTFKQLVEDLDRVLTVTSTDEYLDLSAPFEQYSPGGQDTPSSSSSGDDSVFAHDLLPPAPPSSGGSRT
TEST_PROTOCOL: phosphorylation enrichment, bacterial display (enrichment ratio); higher = better substrate or ligand; peptides without Tyr show the background;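 note: 11-residue human phosphosite peptides and single-mutation variants displayed on the E. coli surface, counted by deep sequencing, each peptide's frequency after selection divided by its frequency in the unselected input library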;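 note: frequency after pTyr selection over input frequency; kinase dosed for 20-30% of maximal phosphorylation in three min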
PROPERTY: phosphorylation enrichment
Reply with the value as a number alone.

Some sequences with known phosphorylation enrichment results, for comparison:
# SEQUENCE, phosphorylation enrichment
data = [
    ("EYGRRYGFSCQ [CCDC93_Y209_R213C]", 0.696),
    ("FKWAVYCIIGR [NUP93_Y391_R388W_YF]", 0.714),
    ("FQNSLYAPDFS [FAM92A_Y226_R222Q_YF]", 1.47),
    ("MRNDLYQTPLH [NFKB1_Y582]", 0.57),
    ("LWKWRYEELKE [CCDC102B_Y299_K298R]", 1.02),
]

Given the entry RMDGTYACSFT [FLNB_Y704_YF] , report its measured phosphorylation enrichment.
0.812

Given the sequence KSELAYEIFDK [MYOM2_Y1024] , what is its reported phosphorylation enrichment?
0.782

Dear colleague, I am looking for the recorded phosphorylation enrichment of the following sequence: IKKLIYVHLVI [JAGN1_Y42]
0.842
